Just for reference, ChEMBL document CHEMBL1127488 is where these values come from.

Biological target: Amine oxidase [flavin-containing] A (Homo sapiens)
Sequence (P21397 whole entry): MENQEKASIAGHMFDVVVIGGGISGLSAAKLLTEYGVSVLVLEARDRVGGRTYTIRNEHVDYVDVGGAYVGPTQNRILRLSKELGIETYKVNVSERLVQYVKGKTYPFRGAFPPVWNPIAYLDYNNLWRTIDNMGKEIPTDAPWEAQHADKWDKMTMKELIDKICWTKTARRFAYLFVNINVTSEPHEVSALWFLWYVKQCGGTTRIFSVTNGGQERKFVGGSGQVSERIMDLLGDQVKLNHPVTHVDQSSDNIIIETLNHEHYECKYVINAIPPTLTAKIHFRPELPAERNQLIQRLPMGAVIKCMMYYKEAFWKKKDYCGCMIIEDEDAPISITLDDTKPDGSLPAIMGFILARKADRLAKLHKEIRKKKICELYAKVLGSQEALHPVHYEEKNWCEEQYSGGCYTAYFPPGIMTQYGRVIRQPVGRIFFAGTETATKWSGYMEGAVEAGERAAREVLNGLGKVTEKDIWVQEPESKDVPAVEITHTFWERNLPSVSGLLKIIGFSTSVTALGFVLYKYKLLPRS
pKi: −log10 of the molar value.
measure-name: pKi

{"columns": ["smiles-data", "result-number"],
 "data": [
  ["C[C@@H]1NC(=O)[C@H](NC(=O)[C@@H](N)Cc2ccc(O)cc2)C(C)(C)SSC(C)(C)[C@@H](C(O)O)NC(=O)[C@H](Cc2ccccc2)NC1=O", 5.70]
]}
